# credit: the supplement of paper PMC10567573

B1: ZNF207 (parent)
chain: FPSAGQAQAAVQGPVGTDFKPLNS

Variants of: B1
EXPERIMENT_SUMMARY: protein stability index of a GFP-peptide fusion (GPS, HEK-293T) (PSI 1-6); higher = more stable;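 also: lentivirally expressed fusions sorted by FACS into six bins by GFP to DsRed ratio, PSI derived from sequencing read proportions per bin multiplied by bin number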
DETAILS: c terminus: a fixed tail appended
MEASURED_ATTRIBUTE: protein stability index
One number for each entry.

FPSAGQAQAMVQGPVGTDFKPLNS [A10M] | 3.18
FPSAGQAQAAVQGPVGTDFKPINS [L22I] | 3.71
FPSEGQAQAAVQGPVGTDFKPLNS [A4E] | 4.58
FPSGGQAQAAVQGPVGTDFKPLNS [A4G] | 2.98

Hi team, please reply with protein stability index for each item in this list.
1. FPSAGQAQAAVQGPVGTIFKPLNS [D18I]
2. FPSAGQAQHAVQGPVGTDFKPLNS [A9H]
3. FPSAGQAQAAVQGPVGTDFKPQNS [L22Q]

1: 2.67; 2: 3.31; 3: 2.92

Hi team, please reply with protein stability index for each item in this list.
1. FPSAGQAQAAVFGPVGTDFKPLNS [Q12F]
2. FPSAGQLQAAVQGPVGTDFKPLNS [A7L]

1: 2.28; 2: 2.27
